// provenance: patent US9346810B2

tested.on: Recombinant human JAK2 catalytic domain (Homo sapiens (Human), UniProt O60674)
Sequence (O60674 849-1124): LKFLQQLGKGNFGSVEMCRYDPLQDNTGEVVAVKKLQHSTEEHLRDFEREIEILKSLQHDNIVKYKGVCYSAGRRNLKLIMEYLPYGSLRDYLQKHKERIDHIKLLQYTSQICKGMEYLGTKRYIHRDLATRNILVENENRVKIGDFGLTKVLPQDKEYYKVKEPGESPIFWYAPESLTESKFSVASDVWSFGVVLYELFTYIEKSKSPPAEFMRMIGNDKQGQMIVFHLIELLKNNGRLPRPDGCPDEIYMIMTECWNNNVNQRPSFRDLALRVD
assay.method.text: JAK2 kinase assay (Z'-LYTE, Tyr 6 Peptide)
Assay type: biochemical
assay.context: read-out: IC50 in JAK2 kinase assay
Entries and their IC50 values follow.

Examples from the recorded data:
[
  {
    "structure.as.smiles": "CN(c1ccc(-c2nn[nH]n2)cc1F)[C@@H]1CCN(c2ncnc3[nH]ccc23)C1",
    "IC50": "1 to 100 nM"
  },
  {
    "structure.as.smiles": "CN(c1ccc(C(=O)NC2CC2)cn1)[C@@H]1CCN(c2ncnc3[nH]ccc23)C1",
    "IC50": "1 to 100 nM"
  },
  {
    "structure.as.smiles": "Cc1cc(N(C)[C@@H]2CCN(c3ncnc4[nH]ccc34)C2)nc(Cl)c1C#N",
    "IC50": "100 to 1000 nM"
  },
  {
    "structure.as.smiles": "CN(c1ncccc1C#N)[C@@H]1CCN(c2ncnc3[nH]ccc23)C1",
    "IC50": "1 to 100 nM"
  },
  {
    "structure.as.smiles": "CN(c1ccc(C#N)nn1)[C@@H]1CCN(c2ncnc3[nH]ccc23)C1",
    "IC50": "1 to 100 nM"
  }
]

Query string: Please state recorded IC50 (tested on Recombinant human JAK2 catalytic domain (Homo sapiens (Human), UniProt O60674)) of CN(c1ccccn1)[C@@H]1CCN(c2ncnc3[nH]ccc23)C1
Result string: 1 to 100 nM

Query string: What about this compound? CN(c1c(F)cc(C(=O)N[C@@H](CO)c2ccccc2)cc1F)[C@@H]1CCN(c2ncnc3[nH]ccc23)C1
Result string: 1 to 100 nM

Query string: Then C#CCN(c1ccc(C#N)cn1)[C@@H]1CCN(c2ncnc3[nH]ccc23)C1 ?
Result string: 1 to 100 nM

Query string: Repeat for the following compound: CCS(=O)(=O)N(C)[C@@H]1CCN(c2ncnc3[nH]ccc23)C1
Result string: 1 to 100 nM

Query string: Follow-up entry: CN(CCC#N)[C@@H]1CCN(c2ncnc3[nH]ccc23)C1
Result string: 1 to 100 nM

----------
tested.on: Recombinant human JAK2 catalytic domain (Homo sapiens (Human), UniProt O60674)
assay.method.text: JAK2 kinase assay (Z'-LYTE, Tyr 6 Peptide)
Assay type: biochemical
assay.context: read-out: IC50 in JAK2 kinase assay
Procedure: JAK1/2/3 kinase assay are performed in vitro using Kit-Tyr 6 Peptide (Invitrogen, Cat. No. PV4122). TYK2 kinase assay are performed in vitro using Z′-LYTE™ Kinase Assay Kit-Tyr 3 Peptide (Invitrogen, Cat. No. PV3192). […] All compounds are initially tested at 8 different concentrations (1 μM down to 0.0003 μM) using a 1:3 serial dilution scheme.
measured.quantity: IC50

[
  {
    "compound": "CN(c1ncc(Br)cn1)[C@@H]1CCN(c2ncnc3[nH]ccc23)C1",
    "measured.quantity": "IC50",
    "readout.value": "1 to 100 nM"
  }
]

Query string: Name the recorded IC50 for CN(C(=O)C1(C#N)CC1)[C@@H]1CCN(c2ncnc3[nH]ccc23)C1 .
Result string: 100 to 1000 nM

Query string: Same read-out for Cc1nc(N(C)[C@@H]2CCN(c3ncnc4[nH]ccc34)C2)ccc1C#N ?
Result string: 1 to 100 nM

Query string: What do we get for CN(c1ccc(C#N)cc1[N+](=O)[O-])[C@@H]1CCN(c2ncnc3[nH]ccc23)C1 ?
Result string: 100 to 1000 nM

Query string: What about C#CCN(c1ccc(C#N)cc1)[C@@H]1CCN(c2ncnc3[nH]ccc23)C1 ?
Result string: 1 to 100 nM

Query string: CN(c1ccc(S(=O)(=O)C(F)(F)F)cc1)[C@@H]1CCN(c2ncnc3[nH]ccc23)C1 , same question.
Result string: 1 to 100 nM

Query string: Cool, now CNS(=O)(=O)c1ccc(N(C)[C@@H]2CCN(c3ncnc4[nH]ccc34)C2)nc1
Result string: 100 to 1000 nM

Query string: Entry to check: C#CCN(C1CCOC1)[C@@H]1CCN(c2ncnc3[nH]ccc23)C1 (some centres unmarked)
Result string: 100 to 1000 nM

----------
tested.on: Recombinant human JAK1 catalytic domain (Homo sapiens (Human), UniProt P23458)
Sequence (P23458 875-1153): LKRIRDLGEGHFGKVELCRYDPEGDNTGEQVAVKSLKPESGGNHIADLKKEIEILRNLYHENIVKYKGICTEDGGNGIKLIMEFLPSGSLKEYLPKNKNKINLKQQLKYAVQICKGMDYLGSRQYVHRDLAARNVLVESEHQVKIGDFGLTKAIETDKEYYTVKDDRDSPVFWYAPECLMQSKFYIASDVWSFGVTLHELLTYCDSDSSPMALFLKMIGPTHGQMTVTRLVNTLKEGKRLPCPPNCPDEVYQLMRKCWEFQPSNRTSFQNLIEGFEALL
assay.method.text: JAK1 kinase assay (Z'-LYTE, Tyr 6 Peptide)
Format: biochemical
assay.context: read-out: JAK1 (enzyme, IC50)
measured.quantity: IC50
In your response, put the unit directly after the numeric value.

Query string: Quick one: IC50 of CN(c1ccc(C(=O)Nc2nccs2)cn1)[C@@H]1CCN(c2ncnc3[nH]ccc23)C1 ?
Result string: 14 nM

----------
tested.on: Recombinant human JAK3 catalytic domain (Homo sapiens (Human), UniProt P52333)
Sequence (P52333 822-1111): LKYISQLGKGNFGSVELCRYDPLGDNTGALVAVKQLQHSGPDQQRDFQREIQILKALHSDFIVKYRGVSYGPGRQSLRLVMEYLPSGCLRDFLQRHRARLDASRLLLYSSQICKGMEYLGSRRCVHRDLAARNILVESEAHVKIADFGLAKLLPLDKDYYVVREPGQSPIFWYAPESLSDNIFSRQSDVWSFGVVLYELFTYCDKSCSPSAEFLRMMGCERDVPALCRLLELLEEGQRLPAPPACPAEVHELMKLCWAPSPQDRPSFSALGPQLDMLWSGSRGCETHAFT
assay.method.text: JAK3 kinase assay (Z'-LYTE, Tyr 6 Peptide)
Type: biochemical
assay.context: read-out: IC50 in JAK3 kinase assay
measured.quantity: IC50

Consider the worked cases shown below.
[
  {
    "structure.as.smiles": "COc1nc(N(C)[C@@H]2CCN(c3ncnc4[nH]ccc34)C2)ccc1C#N",
    "readout.value": "1 to 100 nM"
  },
  {
    "structure.as.smiles": "CN(c1ccc(C(=O)NC2CC2)cn1)[C@@H]1CCN(c2ncnc3[nH]ccc23)C1",
    "readout.value": "100 to 1000 nM"
  },
  {
    "structure.as.smiles": "CN(c1ccc(C#N)cn1)[C@H]1CCN(c2ncnc3[nH]ccc23)C1",
    "readout.value": "100 to 1000 nM"
  },
  {
    "structure.as.smiles": "CN(CCC#N)[C@@H]1CCN(c2ncnc3[nH]ccc23)C1",
    "readout.value": "100 to 1000 nM"
  }
]

Query string: For CN(c1ccc2[nH]c(=O)[nH]c2n1)[C@@H]1CCN(c2ncnc3[nH]ccc23)C1 , what is its reported IC50?
Result string: 100 to 1000 nM

Query string: Another compound to check: CN(c1ccc(C(=O)N[C@H](CO)c2ccccc2)cn1)[C@@H]1CCN(c2ncnc3[nH]ccc23)C1
Result string: 100 to 1000 nM

Query string: And then CN(c1ccc(F)cn1)[C@@H]1CCN(c2ncnc3[nH]ccc23)C1 , what is it?
Result string: 1 to 100 nM

Query string: What do you get for CN(c1ccc(C#N)cc1)[C@@H]1CCN(c2ncnc3[nH]ccc23)C1 ?
Result string: 100 to 1000 nM

Query string: Note, next up: CN(c1ccc(C#N)cn1)[C@@H]1CCN(c2ccnc3[nH]ccc23)C1
Result string: 100 to 1000 nM

Query string: Cool, now N#Cc1ccc(N(C2CC2)[C@@H]2CCN(c3ncnc4[nH]ccc34)C2)nc1
Result string: 100 to 1000 nM

Query string: Likewise for CN(c1ccc(C#N)cn1)[C@@H]1CCN(c2ncnc3[nH]ccc23)C1 ?
Result string: 100 to 1000 nM

----------
tested.on: Recombinant human JAK2 catalytic domain (Homo sapiens (Human), UniProt O60674)
assay.method.text: JAK2 kinase assay (Z'-LYTE, Tyr 6 Peptide)
Assay type: biochemical
assay.context: read-out: IC50 in JAK2 kinase assay
pIC50: −log10 of the molar value.
In this section we review reported pIC50 values for a set of compounds.

Solved cases below.
[
  {
    "compound": "CN(c1ccc(C(=O)NCc2ccccc2)cc1F)[C@@H]1CCN(c2ncnc3[nH]ccc23)C1",
    "tested.on": "Recombinant human JAK2 catalytic domain (Homo sapiens (Human), UniProt O60674)",
    "measured.quantity": "pIC50",
    "readout.value": "7.00 to 9.00"
  },
  {
    "compound": "CN(c1ccc(C#N)cn1)[C@H]1CCN(c2ncnc3[nH]ccc23)C1",
    "tested.on": "Recombinant human JAK2 catalytic domain (Homo sapiens (Human), UniProt O60674)",
    "measured.quantity": "pIC50",
    "readout.value": "7.00 to 9.00"
  },
  {
    "compound": "N#Cc1ccc(N[C@@H]2CCN(c3ncnc4[nH]ccc34)C2)nc1",
    "tested.on": "Recombinant human JAK2 catalytic domain (Homo sapiens (Human), UniProt O60674)",
    "measured.quantity": "pIC50",
    "readout.value": "7.00 to 9.00"
  }
]

Query string: Item CN(c1c(F)cc(C#N)cc1F)[C@@H]1CCN(c2ncnc3[nH]ccc23)C1 has what recorded pIC50?
Result string: 6.00 to 7.00

Query string: Now this one: CN(c1ccc(C(F)(F)F)nn1)[C@@H]1CCN(c2ncnc3[nH]ccc23)C1
Result string: 7.00 to 9.00

Query string: // next record CN([C@@H]1CCN(c2ncnc3[nH]ccc23)C1)S(=O)(=O)c1cccc([N+](=O)[O-])c1
Result string: 6.00 to 7.00

Query string: Ok, now N#Cc1ccc2c(c1)CCN2C1CCN(c2ncnc3[nH]ccc23)C1 (centres unmarked)
Result string: 7.00 to 9.00

Query string: And the next one, CN(c1ccnc(C#N)c1)[C@@H]1CCN(c2ncnc3[nH]ccc23)C1 ?
Result string: 7.00 to 9.00
